This section presents compounds with their documented %Inh values.
# Test system: FES
# test-conditions: concentration: 1 μM, replicates: in singlicate; n = 1
# unit: % | format: bare number

- COc1ccc(NC(=O)Nc2ccc(C)c(-c3ccc(C(=O)Nc4ccncc4)cc3)c2)cc1 [GSK1398475]: 2
- CS(=O)(=O)CCNCc1nc(-c2ccc3ncnc(Nc4ccc(OCc5cccc(F)c5)c(Cl)c4)c3c2)cs1.Cl [GW583340]: 0
- c1ccc(-c2ccc3c(-c4ccnc(Nc5ccc6c(c5)OCCO6)n4)cnn3n2)cc1 [GW818941]: 0

# input for lookup
Per the records, this compound ( Cn1ccc2ncnc(Nc3ccc(Oc4cccc(Cl)c4)c(Cl)c3)c21 ) has %Inh equal to 8

* * *

# Test system: IGF1R
# test-conditions: concentration: 1 μM, replicates: in singlicate; n = 1
This section presents compounds with their documented %Inh values.
Give a bare numeral; the unit % is implied.

Some solved entries appear below for comparison.
- Nc1nc(-c2cccnc2)c(-c2ccnc3ccccc23)s1: 13
- Cn1cc(-c2ccc3c(c2)CCN3C(=O)Cc2cccc(C(F)(F)F)c2)c2c(N)ncnc21: 0
- CNc1nccc(-c2c(-c3ccc(F)cc3)ncn2C2CCN(C)CC2)n1: 0
- CCC(CC)(CC)n1cnc2c(N)ncnc21: 0
- OCCOCCn1ccc2ncnc(Nc3ccc(Oc4cccc(Cl)c4)c(Cl)c3)c21: 0
- Nc1nc(-c2ccccn2)c(-c2ccnc3ccccc23)s1: 9
- CCc1nc(-c2cccc(C)c2)c(-c2ccnc(NC(=O)c3ccccc3)c2)s1: 2
- O=C(NCCCN1CCCC1=O)c1cnc(NCc2cc(Cl)ccc2Cl)nc1NC1CCNCC1: 0

%Inh reading for O=C(Nc1ccccc1F)NC1CCN(c2ccnc(Nc3ccc(F)cc3)n2)C1 (stereo not shown) : 100

For record O=C(Nc1n[nH]c2nc(-c3ccco3)c(Br)cc12)c1ccc(CN2CCCC2)cc1.O=C(O)[C@H](O)[C@@H](O)C(=O)O the listed %Inh is 0

* * *

# System: CDKL3
# test-conditions: concentration: 1 μM, replicates: in singlicate; n = 1
Each entry below carries its reported %Inh.
// note: answer is a bare numeric in %

Example results:
- NC(=O)c1sc(-n2cnc3ccccc32)cc1OCc1ccccc1F [GSK1024306]: 0
- Cl.Cn1ccc(-c2cccc(Nc3ccnc4cc(-c5nccs5)ccc34)c2)n1 [GW525701]: 0
- N#Cc1ccc(Oc2ccc(Nc3ncnc4cc[nH]c34)cc2Cl)cc1: 3
- Nc1nc(-c2ccc3c(N)n[nH]c3c2)cc(N2CCCCC2)n1 [GSK2228768]: 0

response.value for Cl.c1ccc(Cn2ccc3cc(Nc4ncnc5ccccc45)ccc32)cc1 [GW275568] (field: %Inh) = 8

GET /value?item= CNc1nccc(-c2c(-c3ccc(F)cc3)ncn2CCCN2CCOCC2)n1 [SB-222516] &field=%Inh returns 10

Form: molecule = Cc1ccc(O)cc1Nc1cc(C(F)(F)F)nc2ccc(-c3ccncc3)cc12 [GW630823] ; %Inh = 0

Kindly note the recorded %Inh for CC(C)(C)c1ccc(-n2cnc3c(N)ncnc32)cc1 [SKF-97263] , which is 0

get_value(item= COC(=O)c1cccc(NC(=O)NCCNc2ccnc(Nc3ccc(F)cc3)n2)c1 [GSK1379883] , readout=%Inh) returns 0

Entry Cc1ccc(NC(=O)c2cccc(C#N)c2)cc1-c1ccc(C(=O)Nc2ccncc2)cc1 [GSK1398463] , %Inh reported as 0

The reported %Inh of the molecule Cn1cc(-c2ccc3c(c2)CCN3C(=O)Cc2cccc(C(F)(F)F)c2)c2c(N)ncnc21 [GSK2606414] was 0

// COc1ccc(-c2oc3ncnc(N)c3c2-c2ccc(OC)cc2)cc1 [SB-589132] : %Inh value = 0

%Inh recorded for this molecule, Cc1cccc(-c2nc(Nc3ccc4[nH]nnc4c3)c3ccccc3n2)n1 [GW867587] , is 0

Sure, the documented %Inh for COC(=O)c1c(-c2ccccc2)c2cc(Cl)ccc2c(=O)n1Cc1ccc(S(C)(=O)=O)cc1 is 0

molecule C[C@H]1CC[C@@H](C(=O)Nc2ccccc2)CN1c1cc(-c2ccc3c(N)n[nH]c3c2)nc(N)n1 [GSK2283293] , %Inh observed: 0

Recorded result, Cl.c1ccc(Cn2ncc3cc(Nc4ncnc5ccccc45)ccc32)cc1 [GW273749] , %Inh: 0

// sample C[C@@H]1CCN(C(=O)CO)C[C@@H]1N(C)c1ncnc2[nH]ccc12 , its %Inh was 0

Just so you know, measured %Inh for COc1cc2ncnc(Nc3ccc(OCc4ccccc4Br)c(Cl)c3)c2cc1OC.Cl [GI261590] came out at 2

Reported %Inh of CC(C)(C)OC(=O)NC1CCCN(c2cc(-c3ccc4c(N)n[nH]c4c3)nc(N)n2)C1 (stereo not shown) [GSK2286096] : 0

%Inh reported for this molecule Clc1cc(Nc2ncnc3cc[nH]c23)ccc1OCc1ccccn1 : 31

// field: %Inh; key: Fc1cccc(COc2ccc(Nc3ncnc4sc(-c5ccc[nH]5)cc34)cc2Cl)c1 [GW707818] ; value = 0

The reported value for OCCOCCn1ccc2ncnc(Nc3ccc(Oc4cccc(Cl)c4)c(Cl)c3)c21 in terms of %Inh is 5

* * *

# System: TYK2(JH1domain-catalytic);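 further: kd values determined as follow-up on hits from a single-replicate KINOMEscan panel screen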
measurement-name: Kd (nM)
Kindly provide the numeric value in nM only, without the unit symbol.

Record C[C@@H]1CCN(C(=O)CO)C[C@@H]1N(C)c1ncnc2[nH]ccc12 has TYK2(JH1domain-catalytic) Kd equal to 110

* * *

# Test system: SIK
# test-conditions: concentration: 1 μM, replicates: in singlicate; n = 1
measurement-name: %Inh (%)
State just the number; it will be interpreted in %.

* CC(C)(C)OC(=O)NC1CCCN(c2cc(-c3ccc4c(N)n[nH]c4c3)nc(N)n2)C1 (centres unmarked) | 0
* Cn1cc(-c2ccc3c(c2)CCN3C(=O)Cc2cccc(C(F)(F)F)c2)c2c(N)ncnc21 | 0

The compound Nc1n[nH]c2nnc(-c3ccccc3)cc12 showed %Inh equal to 0

The recorded %Inh for entry COc1ccc(NC(=O)c2ccc(-c3cc(-c4nnc(C)o4)ccc3C)cc2)cc1 equals 0

response.value for CCc1nc(-c2cccc(C)c2)c(-c2ccnc(NC(=O)c3ccccc3)c2)s1 (field: %Inh) = 25

Sample O=C(CCO)NCCn1ccc2ncnc(Nc3ccc(Oc4cccc(C(F)(F)F)c4)c(Cl)c3)c21 ; %Inh observed: 10

// CNc1nccc(-c2c(-c3ccc(F)cc3)ncn2C2CCN(C)CC2)n1 : %Inh value = 0

Value of %Inh reported for the compound COc1cc2c(Nc3cccc(NC(=O)c4ccccc4)c3)ncnc2cc1OCCCN1CCOCC1 is 0

// sample N#Cc1ccc(Oc2ccc(Nc3ncnc4cc[nH]c34)cc2Cl)cc1 , its %Inh was 0

* * *

# Test system: WNK3
# test-conditions: concentration: 1 μM, replicates: in singlicate; n = 1
measurement-name: %Inh (%)
Please reply with the bare figure in % and do not write the unit itself.

Here is how some compounds turned out for %Inh.
* Fc1ccc(Nc2nccc(-c3c(-c4ccc(Cl)cc4)nn4ncccc34)n2)cc1F [GW829058] | 41
* CSc1nn2c(=O)cc(N3CCOCC3)nc2n1Cc1cccc(Cl)c1Cl [GSK2347225] | 4
* NC(=O)c1sc(-n2cnc3ccccc32)cc1OCc1ccccc1F [GSK1024306] | 23
* Nc1nc(-c2ccc3c(N)n[nH]c3c2)cc(N2CCCCC2)n1 [GSK2228768] | 0

%Inh value, target or system WNK3, for Cc1cccc(-c2nc(Nc3ccc4[nH]nnc4c3)c3ccccc3n2)n1 [GW867587] : 0

WNK3 assay, compound Cn1cc(-c2ccc3c(c2)CCN3C(=O)Cc2cccc(C(F)(F)F)c2)c2c(N)ncnc21 [GSK2606414] , recorded %Inh = 0

C[C@@H]1CCN(C(=O)CO)C[C@@H]1N(C)c1ncnc2[nH]ccc12 tested on WNK3 gave %Inh: 0

WNK3 %Inh of C[C@H]1CC[C@@H](C(=O)Nc2ccccc2)CN1c1cc(-c2ccc3c(N)n[nH]c3c2)nc(N)n1 [GSK2283293] is 17

The compound CC(C)(C)OC(=O)NC1CCCN(c2cc(-c3ccc4c(N)n[nH]c4c3)nc(N)n2)C1 (stereo not shown) [GSK2286096] , tested on WNK3, showed %Inh of 8

Value sought: %Inh, system WNK3, item Clc1cccc(-c2nc(Nc3ccncc3)c3ccccc3n2)c1 [GW873004] . Result: 0

%Inh value, target or system WNK3, for FC(F)(F)c1ccc(-c2cc(-c3c[nH]nc3-c3ccccn3)ccn2)cc1 [GW599550] : 31

* * *

# Test system: SRMS
# test-conditions: concentration: 1 μM, replicates: in singlicate; n = 1
measurement-name: %Inh (%)
// units = %; emit number, no label

- Nc1nc(-c2ccccn2)c(-c2ccnc3ccccc23)s1 [GW548057]: 0
- Cl.Cl.c1ccc(-c2cc3ccncc3cc2OC2CCNCC2)cc1 [GSK1122999]: 0
- OCCOCCn1ccc2ncnc(Nc3ccc(Oc4cccc(Cl)c4)c(Cl)c3)c21: 0

%Inh in this record for CS(=O)(=O)CCNCc1ccc(-c2ccc3ncnc(Nc4ccc(OCc5ccccc5)c(Cl)c4)c3c2)o1.Cl [GW574783] : 0

Field %Inh (entry Cc1cccc(-c2nc(Nc3ccc4[nH]nnc4c3)c3ccccc3n2)n1 [GW867587] ) reads 10
